EXPERIMENT NOTES: chemical genetic growth profiling, strain panel (AID 1159580);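 also: tested at 20 µM; growth read once vehicle control cultures reached saturation at 30 °C; 1 = growth at the plate median or of vehicle wells; lower values mean less growth of the strain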
CONDITIONS USED: S. cerevisiae deletion strains, growth OD, locus YOR001W, strain rrp6, stronger effect = lower value
In all, about 5,500 compounds went through this assay and about 2,000 (36%) were called active. Inconclusive results (about 18%) are left out. The list shows a part of the results.
Hi! Just check whether normalized growth is below 1. Below gives met, equal or above gives not met.

COMPOUND	LABEL VALUE
C[C@H]1O[C@H](OC2[C@@H](O)[C@@H](O)C(O)[C@H](O)[C@H]2O)[C@@H](N)C[C@@H]1N=C(N)C(=O)O (stereo partly drawn)	met
CN[C@@H]1[C@@H](O)C(OC2[C@@H](N)C[C@@H](N)[C@H](O[C@H]3O[C@H](C(C)O)[C@@H](O)[C@H](O)[C@H]3N)[C@H]2O)OC[C@]1(C)O (stereo partly drawn)	met
CC(CC(C(N)=O)(c1ccccc1)c1ccccc1)N(C)C (stereo not drawn)	met
Cc1cc(OC(=O)c2c(C)cc(O)cc2O)cc(O)c1C(=O)O	met
CN[C@@H]1C(O)[C@@H](O[C@@H]2[C@@H](O)[C@H](O[C@H]3OC(CN)=CC[C@H]3N)[C@@H](N)C[C@H]2N)OC[C@]1(C)O (stereo partly drawn)	not met
COc1cc(OC)c2c(=O)c(O)c(-c3ccc(OC)c(OC)c3)oc2c1	met
CC(C)c1c(O)ccc2c1CCC1C(C)(C)CCC[C@]21C (stereo partly drawn)	met
COc1ccc2c(c1)CCC1C2CC[C@@]2(C)C1CC[C@@H]2O (stereo partly drawn)	met
CC1CC[C@@]2(OC1)O[C@H]1CC3C4CC[C@@H]5C[C@@H](O)CC[C@]5(C)C4CC[C@]3(C)[C@H]1[C@@H]2C (stereo partly drawn)	not met
C=C1CCC2(OC1)OC1CC3C4CC=C5CC(O)CC(O)C5(C)C4CCC3(C)C1C2C (stereo not drawn)	met
Cc1cc(C2CCCCC2)n(O)c(=O)c1	met
CC1CC[C@]2(NC1)O[C@H]1CC3C4CC[C@H]5C[C@@H](O)CC[C@]5(C)C4CC[C@]3(C)[C@H]1[C@@H]2C (stereo partly drawn)	met
COC(=O)[C@@]1(C)CCC[C@]2(C)c3ccc(O)c(C(C)C)c3CCC12 (stereo partly drawn)	met
CC(=O)O[C@]1(C(C)=O)CCC2C3C=C(Cl)C4=CC(=O)[C@@H]5C[C@@H]5[C@]4(C)C3CC[C@@]21C (stereo partly drawn)	not met
CCC(c1ccc(O)cc1)C(CC)c1ccc(O)cc1 (stereo not drawn)	met
CC(C)[N+](C)(CCC(C(N)=O)(c1ccccc1)c1ccccc1)C(C)C	not met
NC(=NCCC[C@H](N)C(=O)O)N[N+](=O)[O-]	not met
Oc1ccc2c(c1)OCC1(O)Cc3cc(O)c(O)cc3C21 (stereo not drawn)	not met
CN1C[C@H](C(=O)N[C@]2(C)O[C@@]3(O)[C@@H]4CCCN4C(=O)[C@H](Cc4ccccc4)N3C2=O)C[C@@H]2c3cccc4[nH]cc(c34)C[C@H]21	not met

* * *

Each entry below carries its reported normalized growth.
EXPERIMENT NOTES: chemical genetic growth profiling, strain panel (AID 1159580);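 also: tested at 20 µM; growth read once vehicle control cultures reached saturation at 30 °C; 1 = growth at the plate median or of vehicle wells; lower values mean less growth of the strain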
CONDITIONS USED: S. cerevisiae deletion strains, growth OD, locus YOR290C, strain snf2, stronger effect = lower value
In all, about 5,500 compounds went through this assay and about 2,000 (36%) were called active. About 18% were inconclusive and are not listed. This is one part of the list.
EXPERIMENTAL ENDPOINT: normalized growth

>>> print(df.to_string())
                                   compound  meas_value
0  CC(C)N(CCC(C(N)=O)(c1ccccc1)c1ccccn1)C(C)C (stereo not given)      0.0671
1  CN1C[C@H](C(=O)N[C@]2(C)O[C@@]3(O)[C@@H]4CCCN4C(=O)[C@H](Cc4ccccc4)N3C2=O)C[C@@H]2c3cccc4[nH]cc(c34)C[C@H]21       0.962
2  COc1ccc2c(c1)CCC1C2CC[C@@]2(C)C1CC[C@@H]2O (stereo not given in full)       0.761
3               CNC(=O)Oc1cccc2c1OC(C)(C)O2       0.959
4  C[C@]12CCC3c4ccc(OS(=O)(=O)O)cc4CCC3C1CC[C@H]2O (stereo not given in full)       0.951
5  NS(=O)(=O)c1cc(C2(O)NC(=O)c3ccccc32)ccc1Cl (stereo not given)       0.986
6  OC1CC2CCCC(C1)N2Cc1ccccc1 (stereo not given)       0.955
7  COc1ccc2c(c1)CCC1C2CCC2(C)C1C[C@@H](O)C2O (stereo not given in full)        0.94
8  CC(C)[N+](C)(CCC(C(N)=O)(c1ccccc1)c1ccccc1)C(C)C       0.923
9      CCCCOc1cc(C(=O)NCCN(CC)CC)c2ccccc2n1       0.977
